Each entry below carries its reported IC50.
- TESTED_TARGET: α-amylase (Homo sapiens, UniProt P04746)
- Sequence (P04746 16-511): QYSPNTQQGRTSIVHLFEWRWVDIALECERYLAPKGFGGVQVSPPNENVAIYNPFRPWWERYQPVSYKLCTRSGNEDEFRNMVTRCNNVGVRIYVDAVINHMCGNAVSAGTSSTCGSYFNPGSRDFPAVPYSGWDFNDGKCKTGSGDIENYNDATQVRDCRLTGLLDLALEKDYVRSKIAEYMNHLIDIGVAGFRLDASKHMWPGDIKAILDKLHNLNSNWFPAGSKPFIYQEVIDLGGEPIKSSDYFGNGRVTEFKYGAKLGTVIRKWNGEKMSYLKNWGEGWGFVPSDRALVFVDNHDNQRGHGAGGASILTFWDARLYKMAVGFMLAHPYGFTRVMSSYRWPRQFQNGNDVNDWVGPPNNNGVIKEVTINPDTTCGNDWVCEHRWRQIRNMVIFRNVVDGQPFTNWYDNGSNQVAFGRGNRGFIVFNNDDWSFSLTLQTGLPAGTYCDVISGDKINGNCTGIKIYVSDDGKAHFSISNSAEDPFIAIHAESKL
- MEASUREMENT_NOTES: α-amylase inhibition, DNSA method
- Assay type: biochemical
VALUE_TYPE: IC50 (µM)

1) COc1cc(NC(=O)Cc2ccc3c(c2)OCO3)c(OC)cc1Cl    16.8
2) O=C(Nc1ccccc1)c1ccc2c(c1)OCO2    0.85
3) COc1ccc(OC)c(NC(=O)Cc2ccc3c(c2)OCO3)c1    16.4
4) COc1ccccc1Oc1ccc(NC(=O)c2ccc3c(c2)OCO3)cc1    5.76

---

- System: HepG2
- MEASUREMENT_NOTES: MTS cytotoxicity assay, HepG2
- Format: cell-based
- ASSAY_CONTEXT: 72 h
- Method: Cultivation of the cancer cell lines MCF-7, Hep3B, HepG2, and Caco-2 HeLa was conducted in RPMI 1640 medium, whereas LX-2, B16-F1, and HEK-293T cells were grown in DMEM medium. These cells were incubated at 37 °C in a 5% CO2 atmosphere within a humid setting. In a 96-well plate, 1000 cells were seeded in each well. […] The absorbance was subsequently assessed at a wavelength of 490 nm using a UV–Vis spectrophotometer.
pIC50: −log10 of the molar value.
VALUE_TYPE: pIC50

1) O=c1[nH]cc(F)c(=O)[nH]1 [Compound 5-FU, reference compound]    5.39
